# subject of test: Dual specificity tyrosine-phosphorylation-regulated kinase 1A (Homo sapiens) (UniProt Q13627)
# assay context: at 1 µM
# Description: GSK_PKIS: DYRK1A mean inhibition at 1 uM [Nanosyn]
quantity measured: inhibition (%)

{"columns": ["compound", "result number"],
 "data": [
  ["CCn1c(-c2nonc2N)nc2c(C#CC(C)(C)O)nc(OC[C@@H](N)c3ccccc3)cc21", 5.33],
  ["CCCN1CCC=C(c2ccc(Nc3nc(Nc4ccccc4C(N)=O)c4cc[nH]c4n3)c(C)c2)C1", 92.3],
  ["CC1=C(C(=O)Nc2ccc3[nH]ncc3c2)C(c2ccc(F)cc2)NC(=O)N1 (centres undefined)", 1.58],
  ["COc1cc(C)c(NC(=O)CN(C)C)cc1Nc1nc(Nc2cccc(F)c2C(N)=O)c2cc[nH]c2n1", 20],
  ["CC(C)=Cc1cccc2c1/C(=N/Nc1ccc(S(N)(=O)=O)cc1)C(=O)N2", 2.34],
  ["O=C1NC(=O)C(c2ccc(Cl)cc2)=C1Nc1ccc(Cl)c(C(=O)O)c1", 17.2],
  ["COc1ccc(-c2coc3ncnc(N)c23)cc1", 19.2],
  ["CCn1c(-c2nonc2N)nc2cncc(C(=O)N3CC[C@H](N)C3)c21", 49.4],
  ["CCN1CCC(CC(=O)Nc2n[nH]c3nc(-c4cccs4)c(Br)cc23)CC1", 20.6],
  ["COc1cc(C=NNc2ncnc3c2cnn3-c2ccccc2)ccc1O", 28.8],
  ["Nc1ncnc2occ(-c3ccc(NC(=O)Nc4cccc(C(F)(F)F)c4)cc3)c12", 6.79],
  ["CCn1c(-c2nonc2N)nc2c(N3CCCC3)nccc21", 8.89],
  ["CCn1c(-c2nonc2N)nc2cncc(C(=O)N3CCNCC3)c21", 4.33],
  ["Cc1ccc(C(=O)NC2CCCCC2)cc1-c1ccc(C(=O)NCC2CC2)cc1", -0.59],
  ["c1cnn2ncc(-c3ccnc(Nc4ccc5c(c4)OCCO5)n3)c2c1", 87.6],
  ["COc1cc2ncn(-c3cc(OCc4ccccc4Cl)c(C(N)=O)s3)c2cc1OC", 4.21],
  ["COc1ccc(COc2ccc(Cc3cnc(N)nc3N)cc2OC)cc1", 0.52],
  ["CN(C)c1cc2c(Nc3ccc4nc(Cc5ccccc5)[nH]c4c3)ncnc2cn1", 6.18],
  ["CC1=C(C(=O)Nc2ccc3[nH]ncc3c2)C(c2ccc(Cl)c(Cl)c2)CC(=O)N1 (centres undefined)", 3.73]
]}
